Tested on: Plasmodium falciparum
Test Protocol: IC50 against parasite (Swiss Tropical Institute standard method)
Type: cell-based
Conditions Used: KI isolate
Measured Property: pIC50
# pIC50 is unitless: minus log10 of the molar concentration; print number only

Return reported pIC50; argument: [N-]=[N+]=CC(=O)CC[C@H](N)C(=O)O
6.28
